meta.source: ChEMBL document CHEMBL5724914

# condition_notes: human gut metagenome, 24 h, 2 µM; further: call rule not given here
experimental_endpoint: Bacterial Biotransformation

| compound | Bacterial Biotransformation |
| --- | --- |
| O=C1CC2(CCCC2)CC(=O)N1CCCCN1CCN(c2ncccn2)CC1 | Compound metabolized |
| CC(=O)Oc1ccc(C(c2ccc(OC(C)=O)cc2)c2ccccn2)cc1 | Compound metabolized |
| C[N+]12CCC(CC1)C(OC(=O)C(O)(c1ccccc1)c1ccccc1)C2.[Br-] (stereo unspecified) [CLIDINIUM BROMIDE] | Compound NOT metabolized |
| CCN(CC)CCNC(=O)c1ccc(NC(C)=O)cc1 [ACECAINIDE] | Compound metabolized |
| O=C1N=C([O-])NC1(c1ccccc1)c1ccccc1.[Na+] [PHENYTOIN SODIUM] | Compound NOT metabolized |

Dear colleague, I am looking for the recorded Bacterial Biotransformation of the following compound: CN1CCC(OC(c2ccccc2)c2ccccc2)CC1
Compound metabolized

Dear colleague, I am looking for the recorded Bacterial Biotransformation of the following compound: CC(C)C[C@H]1C(=O)N2CCC[C@H]2[C@]2(O)O[C@](NC(=O)[C@@H]3C=C4c5cccc6[nH]c(Br)c(c56)C[C@H]4N(C)C3)(C(C)C)C(=O)N12.CS(=O)(=O)O [BROMOCRIPTINE MESYLATE]
Compound metabolized

Dear colleague, I am looking for the recorded Bacterial Biotransformation of the following compound: CN(CCOc1ccc(CC2SC(=O)NC2=O)cc1)c1ccccn1.O=C(O)/C=C\C(=O)O (stereo unspecified) [ROSIGLITAZONE MALEATE]
Compound metabolized

Dear colleague, I am looking for the recorded Bacterial Biotransformation of the following compound: CCCCCNC(=N)N/N=C/c1c[nH]c2ccc(OC)cc12.O=C(O)/C=C\C(=O)O [TEGASEROD MALEATE]
Compound NOT metabolized

Dear colleague, I am looking for the recorded Bacterial Biotransformation of the following compound: O=C1C(CC[S+]([O-])c2ccccc2)C(=O)N(c2ccccc2)N1c1ccccc1 (stereo unspecified)
Compound metabolized

Dear colleague, I am looking for the recorded Bacterial Biotransformation of the following compound: CCOC(=O)C1=C[C@]2(CC)CCCN3CCc4c(n1c1ccccc41)[C@@H]32
Compound metabolized

Dear colleague, I am looking for the recorded Bacterial Biotransformation of the following compound: CCN(CC)CCOC(=O)C1(C2CCCCC2)CCCCC1
Compound metabolized
